B1: Isoform 2 of Bardet-Biedl syndrome 7 protein (Homo sapiens), Q8IWZ6-2 (parent)
chain: MDLILNRMDYLQVGVTSQKTMKLIPASRHRATQKVVIGDHDGVVMCFGMKKGEAAAVFKTLPGPKIARLELGGVINTPQEKIFIAAASEIRGFTKRGKQFLSFETNLTESIKAMHISGSDLFLSASYIYNHYCDCKDQHYYLSGDKINDVICLPVERLSRITPVLACQDRVLRVLQGSDVMYAVEVPGPPTVLALHNGNGGDSGEDLLFGTSDGKLALIQITTSKPVRKWEIQNEKKRGGILCIDSFDIVGDGVKDLLVGRDDGMVEVYSFDNANEPVLRFDQMLSESVTSIQGGCVGKDSYDEIVVSTYSGWVTGLTTEPIHKESGPGEELKINQEMQNKISSLRNELEHLQYKVLQERENYQQSSQSSKAKSAVPSFGINDKFTLNKDDASYSLILEVQTAIDNVLIQSDVPIDLLDVDKNSAVVSFSSCDSESNDNFLLATYRCQADTTRLELKIRSIEGQYGTLQAYVTPRIQPKTCQVRQYHIKPLSLHQRTHFIDHDRPMNTLTLTGQFSFAEVHSWVVFCLPEVPEKPPAGECVTFYFQNTFLDTQLESTYRKGEGVFKSDNISTISILKDVLSKEATKRKINLNISYEINEVSVKHTLKLIHPKLEYQLLLAKKVQLIDALKELQIHEGNTNFLIPEYHCILEEADHLQEEYKKQPAHLERLYG
partner: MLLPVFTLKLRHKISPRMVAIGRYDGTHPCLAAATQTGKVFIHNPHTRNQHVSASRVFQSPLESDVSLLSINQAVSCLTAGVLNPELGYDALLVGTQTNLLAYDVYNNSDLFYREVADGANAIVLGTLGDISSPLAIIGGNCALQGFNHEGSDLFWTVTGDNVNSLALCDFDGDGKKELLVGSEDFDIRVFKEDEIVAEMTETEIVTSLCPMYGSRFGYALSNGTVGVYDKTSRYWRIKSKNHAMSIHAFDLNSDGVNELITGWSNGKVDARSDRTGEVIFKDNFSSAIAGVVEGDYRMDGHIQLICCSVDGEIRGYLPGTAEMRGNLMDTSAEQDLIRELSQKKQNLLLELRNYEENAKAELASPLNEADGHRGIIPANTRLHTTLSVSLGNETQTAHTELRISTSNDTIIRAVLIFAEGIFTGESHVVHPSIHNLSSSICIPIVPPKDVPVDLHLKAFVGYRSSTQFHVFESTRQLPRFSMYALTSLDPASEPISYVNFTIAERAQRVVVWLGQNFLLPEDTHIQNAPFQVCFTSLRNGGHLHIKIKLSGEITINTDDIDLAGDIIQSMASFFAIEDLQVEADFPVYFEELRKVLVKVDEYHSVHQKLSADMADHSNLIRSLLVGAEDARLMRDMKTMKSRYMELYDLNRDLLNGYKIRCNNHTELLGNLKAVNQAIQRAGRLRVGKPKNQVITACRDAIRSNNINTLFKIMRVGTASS

Variants of: B1
Setup Conditions: with bbs2_human BBS2, Q9BXC9
Parameter Measured: effect of a mutation on the interaction

Here are 4 variants together with their reported answers.
Variant Spec: L613A
Value Observed: with no effect
//
Variant Spec: G672K
Value Observed: with no effect
//
Variant Spec: K457E
Value Observed: with no effect
//
Variant Spec: L493K
Value Observed: with no effect

// sample `T605E` , its effect of a mutation on the interaction was with no effect
